biological target: NLRP3 inflammasome (Homo sapiens, UniProt Q96P20); construct: endogenous in cells; experiment: IL-1β secretion assay (NLRP3 IC50) in LPS-primed, nigericin-activated THP-1 cells, HTRF; conditions: monocytic THP-1 cells; LPS 10 ng/mL 3 h priming, then compound + nigericin 10 μM 2 h; relative IC50, 10 concentrations, geometric mean
Sequence (Q96P20 whole entry): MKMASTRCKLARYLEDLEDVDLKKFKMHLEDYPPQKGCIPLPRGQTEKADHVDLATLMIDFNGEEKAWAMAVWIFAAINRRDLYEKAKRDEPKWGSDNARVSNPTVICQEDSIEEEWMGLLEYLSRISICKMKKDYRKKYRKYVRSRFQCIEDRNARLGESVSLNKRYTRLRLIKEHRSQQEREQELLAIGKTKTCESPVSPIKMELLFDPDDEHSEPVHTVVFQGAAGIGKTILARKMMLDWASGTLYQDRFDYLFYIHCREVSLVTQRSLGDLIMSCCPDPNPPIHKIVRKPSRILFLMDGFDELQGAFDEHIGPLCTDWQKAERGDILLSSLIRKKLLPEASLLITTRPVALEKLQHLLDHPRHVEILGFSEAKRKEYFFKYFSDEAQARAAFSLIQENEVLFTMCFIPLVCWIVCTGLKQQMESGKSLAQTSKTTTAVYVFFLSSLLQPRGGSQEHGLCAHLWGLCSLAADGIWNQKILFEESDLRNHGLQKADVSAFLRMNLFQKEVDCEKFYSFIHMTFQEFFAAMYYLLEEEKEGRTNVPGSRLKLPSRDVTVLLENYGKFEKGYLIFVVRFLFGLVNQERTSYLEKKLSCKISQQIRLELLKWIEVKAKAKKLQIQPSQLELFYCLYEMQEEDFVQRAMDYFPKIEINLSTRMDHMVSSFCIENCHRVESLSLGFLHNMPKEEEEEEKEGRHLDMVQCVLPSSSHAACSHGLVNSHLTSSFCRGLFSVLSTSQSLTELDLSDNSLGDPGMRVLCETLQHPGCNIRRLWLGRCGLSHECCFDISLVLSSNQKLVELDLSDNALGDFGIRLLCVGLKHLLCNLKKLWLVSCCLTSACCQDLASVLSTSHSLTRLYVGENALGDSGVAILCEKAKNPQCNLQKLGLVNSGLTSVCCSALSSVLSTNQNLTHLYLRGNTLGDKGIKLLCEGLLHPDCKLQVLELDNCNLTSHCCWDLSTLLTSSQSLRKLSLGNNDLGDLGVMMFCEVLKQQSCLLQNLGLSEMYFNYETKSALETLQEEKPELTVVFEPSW
pIC50: −log10 of the molar value.
Decide by pIC50: equal to or exceeding 6 means condition met, less means condition not met.

Example entries and their recorded answers appear below.
> print(dat)
                                   molecule     class.name
1  Cc1cc(O)c(-c2ccc(N3CCO[C@H](CO)C3)nn2)c(C(F)(F)F)c1  condition met
2  COC[C@H]1CN(c2ccc(-c3c(O)cc(Cl)cc3Cl)nn2)CCO1  condition met
3  Oc1cc(C(F)(F)F)ccc1-c1nnc(N2CCO[C@@H]3CCNC[C@@H]32)cc1C(F)F  condition met

I'd appreciate it if you could say whether Cc1cc(C)c(-c2ccc(N3CCC4(CC3)CC(O)C4)nn2)c(O)c1 has pIC50 at least equal to 6.
condition not met

I'd appreciate it if you could say whether Cc1cc(C)c(-c2ccc(N3CC[C@H](O)C3)nn2)c(O)c1 has pIC50 at least equal to 6.
condition met

I'd appreciate it if you could say whether Oc1cc(Cl)cc(Cl)c1-c1ccc(N2CCOC(CF)C2)nn1 (stereo not drawn) has pIC50 at least equal to 6.
condition met

I'd appreciate it if you could say whether CCc1cc(N2CCO[C@H](CO)C2)nnc1-c1ccc(C)cc1O has pIC50 at least equal to 6.
condition met

I'd appreciate it if you could say whether CC(=O)N1C[C@@H]2OCCN(c3ccc(-c4c(C)cc(C(F)(F)F)cc4O)nn3)[C@@H]2C1 (single isomer, unassigned) [Example 348] has pIC50 at least equal to 6.
condition met

I'd appreciate it if you could say whether Cc1cc(C)c(-c2ccc(N3CCOC[C@H]3CN)nn2)c(O)c1 has pIC50 at least equal to 6.
condition not met

I'd appreciate it if you could say whether Cc1cc(Cl)cc(O)c1-c1ccc(N2CCO[C@@H](CF)C2)nn1 has pIC50 at least equal to 6.
condition met

I'd appreciate it if you could say whether CC(=O)NC[C@H]1CCCN(c2ccc(-c3c(C)cc(C(F)(F)F)cc3O)nn2)C1 has pIC50 at least equal to 6.
condition met

I'd appreciate it if you could say whether Cc1cc(C(F)(F)F)cc(O)c1-c1ccc(N2CC[C@H]3CCNC[C@H]32)nn1 (single isomer, unassigned) has pIC50 at least equal to 6.
condition met

All values here come from patent US20240360151A1.
